src = ChEMBL document CHEMBL4145649

For each record, write down the corresponding IC50.

(Q) Look up and report IC50, with Cytochrome P450 3A4 (Homo sapiens, UniProt P08684) as system, for `Cl.Cl.Cl.Cl.NCc1ccc(-c2cnccc2-c2cncnc2)s1`
Sequence (P08684 whole entry): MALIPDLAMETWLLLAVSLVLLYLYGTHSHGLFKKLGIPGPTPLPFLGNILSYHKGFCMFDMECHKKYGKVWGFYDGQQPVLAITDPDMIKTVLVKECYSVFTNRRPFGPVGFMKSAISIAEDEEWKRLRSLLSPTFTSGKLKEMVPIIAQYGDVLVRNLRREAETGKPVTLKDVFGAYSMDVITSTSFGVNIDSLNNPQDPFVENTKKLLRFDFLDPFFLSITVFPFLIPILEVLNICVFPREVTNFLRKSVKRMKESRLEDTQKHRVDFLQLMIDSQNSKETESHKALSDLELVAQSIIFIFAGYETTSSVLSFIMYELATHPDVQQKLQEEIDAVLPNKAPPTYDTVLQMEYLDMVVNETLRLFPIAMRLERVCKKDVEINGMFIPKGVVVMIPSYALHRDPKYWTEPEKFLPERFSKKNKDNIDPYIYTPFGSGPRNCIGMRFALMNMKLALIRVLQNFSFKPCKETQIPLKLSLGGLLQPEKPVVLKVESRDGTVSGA
(A) 39 µM

(Q) Answer with IC50 of `COc1ccncc1C#CCN` measured for Cytochrome P450 3A4 (Homo sapiens, UniProt P08684).
(A) > 50 µM

(Q) Output reported IC50 of the compound `NCc1ccc(-c2cnccc2-c2ccco2)s1` on Cytochrome P450 3A4 (Homo sapiens, UniProt P08684).
(A) 7 µM

(Q) # assay system Cytochrome P450 3A4 (Homo sapiens, UniProt P08684): give IC50 of `Cl.Cl.Cl.Cl.NCc1ccc(-c2cnccc2-c2cncnc2)o1`
(A) > 25 µM

(Q) Fill in IC50 for `NCC#Cc1cnccc1-c1cncnc1` tested with Cytochrome P450 3A4 (Homo sapiens, UniProt P08684).
(A) > 25 µM

(Q) Provide the reported IC50 (system: Cytochrome P450 3A4 (Homo sapiens, UniProt P08684)) for `Cl.Cl.Cl.NCC#Cc1cnccc1-c1ccncc1`
(A) > 25 µM

(Q) For Cytochrome P450 3A4 (Homo sapiens, UniProt P08684), give IC50 of the listed compound: `Cc1ccncc1C#CCN.Cl.Cl`
(A) 5.6 µM

(Q) Find IC50 for `CCc1ccncc1C#CCN.Cl.Cl` on Cytochrome P450 3A4 (Homo sapiens, UniProt P08684) and write it down.
(A) > 50 µM

* * *

test: Half life in human liver microsomes at 10 uM up to 2 hrs at 37 degC in presence of NADPH-regenerating system by UPLC/MS analysis
Measure: t1/2

(Q) For the molecule `Cl.Cl.Cl.NCC#Cc1cnccc1-c1ccncc1` , report t1/2.
(A) 36 min

(Q) Give t1/2 for the following molecule: `Cl.Cl.Cl.Cl.NCc1ccc(-c2cnccc2-c2cncnc2)o1`
(A) > 120 min

(Q) Name the recorded t1/2 of the item `Cc1ccncc1C#CCN.Cl.Cl` in your answer.
(A) 8.4 min

(Q) Provide only the value of recorded t1/2 for `Cl.Cl.Cl.Cl.NCc1ccc(-c2cnccc2-c2cncnc2)s1`
(A) > 120 min

(Q) Write down t1/2 measured for item `Cl.Cl.Cl.NCc1ccc(-c2cnccc2-c2cccnc2)o1`
(A) > 120 min

(Q) Consider the molecule `CCc1ccncc1C#CCN.Cl.Cl` and give its recorded t1/2.
(A) 9.8 min

(Q) Give t1/2 for `Cl.Cl.Cl.NCc1ccc(-c2cnccc2-c2ccncc2)s1`
(A) 32 min

* * *

molecular target: Cytochrome P450 2A6 (Homo sapiens)
Sequence (P11509 whole entry): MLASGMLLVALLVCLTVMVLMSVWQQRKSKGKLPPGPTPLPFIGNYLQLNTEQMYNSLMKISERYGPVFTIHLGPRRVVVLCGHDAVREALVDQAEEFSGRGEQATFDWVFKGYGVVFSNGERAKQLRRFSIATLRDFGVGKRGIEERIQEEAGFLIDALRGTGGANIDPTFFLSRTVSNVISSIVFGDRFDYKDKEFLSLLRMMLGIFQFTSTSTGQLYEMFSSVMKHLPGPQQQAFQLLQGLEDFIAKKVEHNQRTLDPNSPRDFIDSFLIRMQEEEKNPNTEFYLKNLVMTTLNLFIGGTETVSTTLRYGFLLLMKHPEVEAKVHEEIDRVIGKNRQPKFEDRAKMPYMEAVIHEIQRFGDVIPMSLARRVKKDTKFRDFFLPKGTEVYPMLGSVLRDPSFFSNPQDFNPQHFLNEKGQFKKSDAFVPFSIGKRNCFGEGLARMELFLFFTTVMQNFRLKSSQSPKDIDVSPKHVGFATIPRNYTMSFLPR
pIC50: −log10 of the molar value.
Measure: pIC50

(Q) Return pIC50 (reported value) for this compound: `Cc1cncc(C#CCN)c1`
(A) < 5.00

* * *

Measure: pIC50
Please note pIC50 is a logarithmic value: minus log10 of concentration in mol/L. Answer with that number alone.

(Q) # return pIC50 for `CCc1ccncc1C#CCN.Cl.Cl` , test system: Cytochrome P450 2C8 (Homo sapiens, UniProt P10632)
Sequence (P10632 whole entry): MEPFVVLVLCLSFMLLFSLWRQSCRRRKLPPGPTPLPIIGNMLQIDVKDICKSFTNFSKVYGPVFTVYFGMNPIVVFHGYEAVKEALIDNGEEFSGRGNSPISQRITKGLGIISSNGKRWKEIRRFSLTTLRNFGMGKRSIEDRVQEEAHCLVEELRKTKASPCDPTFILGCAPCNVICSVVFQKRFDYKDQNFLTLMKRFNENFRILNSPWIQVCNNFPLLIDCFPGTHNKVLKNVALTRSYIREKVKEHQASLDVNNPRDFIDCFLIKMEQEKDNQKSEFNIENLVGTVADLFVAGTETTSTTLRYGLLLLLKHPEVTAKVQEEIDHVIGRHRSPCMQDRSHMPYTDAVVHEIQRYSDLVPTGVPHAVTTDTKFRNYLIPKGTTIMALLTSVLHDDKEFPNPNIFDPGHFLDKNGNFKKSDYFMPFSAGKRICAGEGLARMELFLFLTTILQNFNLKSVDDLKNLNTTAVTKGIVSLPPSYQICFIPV
(A) 4.60

(Q) Look up and report pIC50, with Cytochrome P450 2C8 (Homo sapiens, UniProt P10632) as system, for `NCc1ccc(-c2cnccc2-c2ccco2)s1`
(A) 5.42

(Q) Look up and report pIC50, with Cytochrome P450 2C8 (Homo sapiens, UniProt P10632) as system, for `Cc1ccncc1C#CCN.Cl.Cl`
(A) 5.07
